Every entry's value here was drawn from paper PMC6056499.

target_or_system: human β-Klotho extracellular domain (aa1–992) fused with a 6 × His tag at the C-terminus (human, UniProt Q86Z14 1-992, biotin (EZ-Link Sulfo-NHS-LC-Biotin) in the bio-layer interferometry)
Sequence (Q86Z14 53-992): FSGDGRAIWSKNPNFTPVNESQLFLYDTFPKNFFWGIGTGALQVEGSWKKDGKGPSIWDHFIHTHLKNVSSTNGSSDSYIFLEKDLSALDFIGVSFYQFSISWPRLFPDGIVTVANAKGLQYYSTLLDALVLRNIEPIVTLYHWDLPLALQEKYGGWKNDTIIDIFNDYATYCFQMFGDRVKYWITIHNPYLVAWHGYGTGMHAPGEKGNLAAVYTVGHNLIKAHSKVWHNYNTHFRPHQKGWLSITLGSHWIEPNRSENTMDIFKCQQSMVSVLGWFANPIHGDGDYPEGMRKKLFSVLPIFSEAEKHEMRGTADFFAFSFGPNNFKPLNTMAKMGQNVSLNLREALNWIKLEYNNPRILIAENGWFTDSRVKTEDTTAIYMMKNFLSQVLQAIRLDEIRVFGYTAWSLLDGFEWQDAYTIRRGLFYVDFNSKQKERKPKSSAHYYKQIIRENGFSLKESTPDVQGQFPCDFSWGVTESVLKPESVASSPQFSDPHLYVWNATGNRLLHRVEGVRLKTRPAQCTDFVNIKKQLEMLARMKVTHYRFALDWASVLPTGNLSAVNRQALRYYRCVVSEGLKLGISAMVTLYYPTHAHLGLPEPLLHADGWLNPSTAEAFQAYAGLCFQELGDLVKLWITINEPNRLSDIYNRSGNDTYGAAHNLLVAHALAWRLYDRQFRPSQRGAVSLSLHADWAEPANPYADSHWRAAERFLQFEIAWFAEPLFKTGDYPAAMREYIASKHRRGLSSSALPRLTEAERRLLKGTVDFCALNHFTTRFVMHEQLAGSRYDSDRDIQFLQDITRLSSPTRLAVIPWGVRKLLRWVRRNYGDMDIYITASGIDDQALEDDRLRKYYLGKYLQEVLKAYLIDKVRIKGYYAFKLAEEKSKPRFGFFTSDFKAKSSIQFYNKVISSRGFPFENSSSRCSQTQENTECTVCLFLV
procedure_summary: AlphaScreen, competition with FGF21
reported_property: IC50 (nM)

1. mature human FGF21 (ligand, biotin (EZ-Link Sulfo-NHS-LC-Biotin) in the solid-phase binding assay; biotinylated as the labelled ligand in AlphaScreen) HPIPDSSPLLQFGGQVRQRYLYTDDAQQTEAHLEIREDGTVGGAADQSPESLLQLKALKPGVIQILGVKTSRFLCQRPDGALYGSLHFDPEACSFRELLLEDGYNVYQSEAHGLPLHLPGNKSPHRDPAPRGPARFLPLPGLPPALPEPPGILAPQPPDVGSSDPLSMVGPSQGRSPSYAS ... 23.1
2. SDMFSSPLETDSMDPFGLVTGLEAVRSPSFEK [FGF19 C-terminal peptide, WT FGF19^185–216] ... 346
